Inhibition listing for selected molecules.
Test system: Cryptococcus neoformans
Settings: Concentration 20 uM; ASSAY_TEST Inhibition of Fungal Growth; detection method Resazurin; Absorption (OD600-OD570); plate type 384well; NBS; CORNING #3640
Description: Antifungal activity against Cryptococcus neoformans H99 ATCC 208821 (CO-ADD:FG_002); MIC in YNB media using NBS plates, by Resazurin OD(600-570)
Measured potencies and affinities stand elsewhere.
READOUT_LABEL: Inhibition (%)

MOLECULE	SYSTEM_TESTED	UNIT_SYMBOL	READOUT_NUMBER
CC(=O)[C@H]1CC[C@H]2[C@@H]3CCC4=CC(=O)CC[C@]4(C)[C@H]3CC[C@]12C [PROGESTERONE]	Cryptococcus neoformans	%	-1.48
C=C1C[C@@H]2[C@H](CC[C@]3(C)C(=O)CC[C@@H]23)[C@@]2(C)C=CC(=O)C=C12 [EXEMESTANE]	Cryptococcus neoformans	%	-8.06
CC[C@@H]1/C=C/C=C/C[C@H](C)[C@@H](O)[C@](C)(O)C(=O)[C@H](C)[C@@H](O)[C@H](C)C(=O)[C@H](C)[C@@H](O)[C@H](C)/C=C/C(=O)O[C@H]2[C@@H](C)[C@@H](CC1)O[C@@]1(CC[C@@H](C)[C@@H](C[C@H](C)O)O1)[C@@H]2C	Cryptococcus neoformans	%	-9.53
CN1C(=O)COc2c(C(=O)NC3CN4CCC3CC4)cc(Cl)cc21.Cl (centres undefined)	Cryptococcus neoformans	%	-3.23
O.O=P1(N(CCCl)CCCl)NCCCO1 (centres undefined) [CYCLOPHOSPHAMIDE]	Cryptococcus neoformans	%	1.2
C[C@]12CCC(=O)C[C@@H]1CC[C@@H]1[C@@H]2CC[C@@]2(C)[C@H]1CC[C@]2(C)O [MESTANOLONE]	Cryptococcus neoformans	%	4.57
COc1cc([C@@H]2c3cc4c(cc3[C@H](O)[C@H]3COC(=O)[C@H]23)OCO4)cc(OC)c1OC [PODOFILOX]	Cryptococcus neoformans	%	-1.83
CNC1=Nc2ccc(Cl)cc2C(c2ccccc2)=[N+]([O-])C1 [CHLORDIAZEPOXIDE]	Cryptococcus neoformans	%	-9.21
Cl.FC(F)(F)c1cccc(N2CCNCC2)c1	Cryptococcus neoformans	%	-3.92
Cc1c(O)c(=O)ccn1C [DEFERIPRONE]	Cryptococcus neoformans	%	-5.92
CC(=O)OC1C([N+]2(C)CCCCC2)C[C@H]2C3CC[C@H]4C[C@H](OC(C)=O)C([N+]5(C)CCCCC5)CC4(C)[C@H]3CCC12C.[Br-].[Br-] (some centres undefined)	Cryptococcus neoformans	%	-9.01
COC(=O)C[C@](O)(CCCC(C)(C)O)C(=O)O[C@@H]1C(OC)=C[C@]23CCCN2CCc2cc4c(cc2[C@H]13)OCO4 [OMACETAXINE MEPESUCCINATE]	Cryptococcus neoformans	%	1.94
C[N+]1(C)CCC(OC(=O)C(O)(c2ccccc2)C2CCCC2)C1.[Br-] (centres undefined) [GLYCOPYRRONIUM BROMIDE]	Cryptococcus neoformans	%	-2.52
COc1cc2c(cc1OC)[C@@]13CCN4CC5=CCO[C@H]6CC(=O)N2[C@H]1[C@H]6[C@H]5C[C@H]43 [BRUCINE]	Cryptococcus neoformans	%	-1.81

* * *

Tested on: Candida albicans
Conditions: 20 µM
Description: Antifungal activity against Candida albicans ATCC 90028 (CO-ADD:FG_001); MIC in YNB media using NBS plates, by OD630
Entries with a potency or affinity are not part of this list.
Mark each entry 1 (yes) if its Inhibition sits below 3%, and 0 (no) for all others.

COMPOUND	CLASS_LABEL
CN(C)CCc1c[nH]c2ccc(Cn3cncn3)cc12.O=C(O)c1ccccc1 [RIZATRIPTAN BENZOATE]	0 (no)
C[N+]1(C)CCN(c2ccccc2)CC1.[I-] [DIMETHYLPHENYLPIPERAZINIUM IODIDE]	1 (yes)
CCOC(=O)c1ncn2c1CN(C)C(=O)c1cc(F)ccc1-2	1 (yes)
Cc1ccnc2c1NC(=O)c1cccnc1N2C1CC1	1 (yes)
CC(COc1ccccc1)N(CCCl)Cc1ccccc1.Cl (centres undefined) [PHENOXYBENZAMINE HYDROCHLORIDE]	0 (no)
CC(C)N(CCC(C(N)=O)(c1ccccc1)c1ccccn1)C(C)C.O=P(O)(O)O (centres undefined) [DISOPYRAMIDE PHOSPHATE]	0 (no)
CN1CCN(C(=O)O[C@H]2c3nccnc3C(=O)N2c2ccc(Cl)cn2)CC1	1 (yes)

* * *

Entries and their Inhibition values follow.
Tested on: Klebsiella pneumoniae
Settings: Concentration 20 uM; ASSAY_TEST Inhibition of Bacterial Growth; detection method Absorption (OD600); MEDIA CAMHB; plate type 384well; NBS; CORNING #3640; time 18 hr
Description: Antibacterial activity against Klebsiella pneumoniae MDR ATCC 70063 (CO-ADD:GN_003); MIC in CAMBH media using NBS plates, by OD(600)
Results with a measured potency or affinity are listed apart.

COMPOUND	Inhibition, %
COc1cc2c(cc1OC)[C@@]13CCN4CC5=CCO[C@H]6CC(=O)N2[C@H]1[C@H]6[C@H]5C[C@H]43	6.18
CN1CCN(C(=O)O[C@H]2c3nccnc3C(=O)N2c2ccc(Cl)cn2)CC1	-5.59
C[C@]12CCC(=O)C=C1CC[C@@H]1[C@@H]2CC[C@@]2(C)[C@H]1CC[C@]2(C)O	12.33
Cc1c(O)c(=O)ccn1C	3.55
CN1[C@@H](CC(=O)c2ccccc2)CCC[C@H]1C[C@H](O)c1ccccc1.Cl [LOBELINE HYDROCHLORIDE]	19.91
O=C1Nc2ccc(Cl)cc2C(c2ccccc2Cl)=NC1O (centres undefined)	-5.27
Cl.O=C1CC2(CCCC2)CC(=O)N1CCCCN1CCN(c2ncccn2)CC1 [BUSPIRONE HYDROCHLORIDE]	10.99
CC(=O)CC(c1ccccc1)c1c([O-])c2ccccc2oc1=O.[Na+] (centres undefined) [WARFARIN SODIUM]	4.09
CC[C@@H]1/C=C/C=C/C[C@H](C)[C@@H](O)[C@](C)(O)C(=O)[C@H](C)[C@@H](O)[C@H](C)C(=O)[C@H](C)[C@@H](O)[C@H](C)/C=C/C(=O)O[C@H]2[C@@H](C)[C@@H](CC1)O[C@@]1(CC[C@@H](C)[C@@H](C[C@H](C)O)O1)[C@@H]2C	17.55

* * *

Tested on: Klebsiella pneumoniae
Conditions: Concentration 20 uM; ASSAY_TEST Inhibition of Bacterial Growth; detection method Absorption (OD600); MEDIA CAMHB; plate type 384well; NBS; CORNING #3640; time 18 hr
Measured potencies and affinities stand elsewhere.

COMPOUND	Inhibition / %
c1cncc([C@@H]2CCCN2)c1	9.44
CC(=O)OC1C([N+]2(C)CCCCC2)C[C@H]2C3CC[C@H]4C[C@H](OC(C)=O)C([N+]5(C)CCCCC5)CC4(C)[C@H]3CCC12C.[Br-].[Br-] (some centres undefined)	10.46
CC(NC(C)(C)C)C(=O)c1cccc(Cl)c1.Cl (centres undefined) [BUPROPION HYDROCHLORIDE]	2.52
CNS(=O)(=O)Cc1ccc2[nH]cc(CCN(C)C)c2c1.O=C(O)CCC(=O)O [SUMATRIPTAN SUCCINATE]	9.24

* * *

Tested on: Cryptococcus neoformans
Conditions: Concentration 20 uM; ASSAY_TEST Inhibition of Fungal Growth; detection method Resazurin; Absorption (OD600-OD570); plate type 384well; NBS; CORNING #3640
Potency and affinity values are given separately.
Recorded Inhibition by entry

MOLECULE	UNIT_SYMBOL	Inhibition
Oc1ncnc2[nH]ncc12	%	-1.92
CN/C(=N\CCSCc1nc[nH]c1C)NC#N	%	2.1
CCOC(=O)c1cncn1[C@H](C)c1ccccc1 [ETOMIDATE]	%	0.21
CC(COc1ccccc1)N(CCCl)Cc1ccccc1.Cl (stereo not given) [PHENOXYBENZAMINE HYDROCHLORIDE]	%	-10.83
CC1CCC[C@H](O)CCCCCc2cc(O)cc(O)c2C(=O)O1 (stereo not given in full)	%	-2.51
c1ccc2c(c1)Nc1ccccc1S2	%	6.01
Nc1nc(F)nc2c1ncn2[C@@H]1O[C@H](CO)[C@@H](O)[C@@H]1O	%	-5.72
Brc1c(NC2=NCCN2)ccc2nccnc12	%	-1.44
NCCc1ccccn1	%	-5.04
C[C@]12CC[C@H](O)CC1=CC[C@@H]1[C@@H]2CC[C@]2(C)C(=O)CC[C@@H]12	%	2.55

* * *

Test system: Candida albicans
Conditions: 20 µM
Results with a measured potency or affinity are listed apart.

COMPOUND	SYSTEM_TESTED	Inhibition
N=C(NCc1ccc(Cl)cc1)SCCCc1c[nH]cn1	Candida albicans	2.99%
O=C1Nc2ccc(Cl)cc2C(c2ccccc2Cl)=NC1O (stereo not drawn)	Candida albicans	5.15%
CN/C(=N\CCSCc1nc[nH]c1C)NC#N	Candida albicans	3.16%

* * *

Quick list: Inhibition per entry.
System: Cryptococcus neoformans
Conditions: Concentration 20 uM; ASSAY_TEST Inhibition of Fungal Growth; detection method Resazurin; Absorption (OD600-OD570); plate type 384well; NBS; CORNING #3640
Results with a measured potency or affinity are listed apart.
READOUT_LABEL: Inhibition (%)

COMPOUND	READOUT_NUMBER
Nc1nc2ccc(Cl)cc2c2nc(-c3ccco3)nn12 [CGS-15943]	-14.37
Cc1c(OCC(F)(F)F)ccnc1C[S+]([O-])c1nc2ccccc2[nH]1 (stereo not drawn) [LANSOPRAZOLE]	-23.82
CCCCCNC(=N)N/N=C/c1c[nH]c2ccc(OC)cc12.O=C(O)/C=C\C(=O)O [TEGASEROD MALEATE]	-67.8
